I'd appreciate it if you could supply IC50 values for the items below.
molecular target: NRAS G12C (Homo sapiens (Human), UniProt P01111+P62937, G12C); assay: Ras-Raf (BRAF RBD) disruption / FRET / MOA assay, NRAS G12C; type: biochemical; details: read-out: IC50* NRAS G12C FRET data
Sequence (P01111 whole entry G12C): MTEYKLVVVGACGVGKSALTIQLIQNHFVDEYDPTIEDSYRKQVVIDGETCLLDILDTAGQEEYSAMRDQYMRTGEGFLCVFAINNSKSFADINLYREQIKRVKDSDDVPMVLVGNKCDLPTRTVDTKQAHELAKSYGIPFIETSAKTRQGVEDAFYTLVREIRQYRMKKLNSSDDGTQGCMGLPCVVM
Sequence (P62937 whole entry): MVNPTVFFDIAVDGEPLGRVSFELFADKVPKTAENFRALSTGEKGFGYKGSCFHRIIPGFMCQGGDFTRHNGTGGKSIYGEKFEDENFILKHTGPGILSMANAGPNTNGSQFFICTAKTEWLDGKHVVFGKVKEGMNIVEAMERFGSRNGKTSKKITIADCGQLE

// solved cases for IC50 follow
# molecule, IC50
records = [
    ("C=CC(=O)N1CC(N(C)C(=O)N(C)[C@H](C(=O)N[C@H]2Cc3nc(cs3)-c3ccc4c(c3)c(c(-c3cccnc3[C@H](C)OC)n4CC)CC(C)(C)COC(=O)[C@@H]3CCCN(N3)C2=O)C(C)C)C1 (atropisomer, axis not shown)", "< 10 nM"),
    ("C=CC(=O)N1CC[C@]2(COCCN2C(=O)N(C)[C@H](C(=O)N[C@H]2Cc3nc(cs3)-c3ccc4c(c3)c(c(-c3cccnc3[C@H](C)OC)n4CC)CC(C)(C)COC(=O)[C@@H]3CCCN(N3)C2=O)C(C)C)C1 (atropisomer, axis not shown)", "10 to 100 nM"),
    ("CCn1c(-c2cccnc2)c2c3cc(ccc31)-c1csc(n1)C[C@H](NC(=O)[C@H](C(C)C)N(C)C(=O)[C@H]1CCN(C(=O)C#CCN3CCOCC3)C1)C(=O)N1CCC[C@H](N1)C(=O)OCC(C)(C)C2", "100 to 1000 nM"),
]

Here's the next entry for you.
Inquiry: Consider the molecule shown here: C=CC(=O)N1CC[C@H](C(=O)N(C)[C@H](C(=O)N[C@H]2Cc3csc(n3)-c3ccc4c(c3)c(c(-c3cccnc3[C@H](C)OC)n4CC(F)(F)F)CC(C)(C)COC(=O)[C@@H]3CCCN(N3)C2=O)C(C)C)C1 (atropisomer, axis not shown) What is its recorded IC50?
Reply text: 100 to 1000 nM
